test: Antiproliferative activity against human MM1.R cells assessed as cell growth inhibition; assay type: functional, cell-based; conditions: MM.1R
Quantity Name: pIC50
Answer as the number alone; pIC50 is minus log10 of concentration in mol/L.

Entry `CC1=C(O)C(=O)C=C2C1=CC=C1[C@@]2(C)CC[C@@]2(C)[C@@H]3C[C@](C)(C(=O)O)CC[C@]3(C)CC[C@]12C` ; pIC50 = 6.28

* * *

target: Cytochrome P450 2C11 (Rattus norvegicus)
Sequence (P08683 whole entry): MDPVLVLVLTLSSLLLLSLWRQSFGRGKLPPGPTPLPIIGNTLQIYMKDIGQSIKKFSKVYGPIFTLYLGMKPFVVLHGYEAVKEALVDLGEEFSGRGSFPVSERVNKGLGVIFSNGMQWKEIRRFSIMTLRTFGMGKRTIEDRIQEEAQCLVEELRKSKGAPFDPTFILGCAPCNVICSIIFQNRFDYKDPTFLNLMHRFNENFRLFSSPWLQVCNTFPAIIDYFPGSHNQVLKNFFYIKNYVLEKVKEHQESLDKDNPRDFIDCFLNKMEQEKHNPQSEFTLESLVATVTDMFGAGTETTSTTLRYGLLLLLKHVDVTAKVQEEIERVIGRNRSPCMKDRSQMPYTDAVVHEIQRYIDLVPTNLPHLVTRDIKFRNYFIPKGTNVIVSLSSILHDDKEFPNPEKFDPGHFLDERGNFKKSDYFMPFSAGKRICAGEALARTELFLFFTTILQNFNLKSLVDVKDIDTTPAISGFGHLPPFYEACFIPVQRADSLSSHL
Quantity Name: IC50 (µM)
Expressed in µM, but write only the number.

Lab entry: Cytochrome P450 2C11 (Rattus norvegicus) assay, compound `CC1=C(O)C(=O)C=C2C1=CC=C1[C@@]2(C)CC[C@@]2(C)[C@@H]3C[C@](C)(C(=O)O)CC[C@]3(C)CC[C@]12C` , IC50 = 10.2

* * *

target: Cytochrome P450 1A2 (Rattus norvegicus, UniProt P04799)
Sequence (P04799 whole entry): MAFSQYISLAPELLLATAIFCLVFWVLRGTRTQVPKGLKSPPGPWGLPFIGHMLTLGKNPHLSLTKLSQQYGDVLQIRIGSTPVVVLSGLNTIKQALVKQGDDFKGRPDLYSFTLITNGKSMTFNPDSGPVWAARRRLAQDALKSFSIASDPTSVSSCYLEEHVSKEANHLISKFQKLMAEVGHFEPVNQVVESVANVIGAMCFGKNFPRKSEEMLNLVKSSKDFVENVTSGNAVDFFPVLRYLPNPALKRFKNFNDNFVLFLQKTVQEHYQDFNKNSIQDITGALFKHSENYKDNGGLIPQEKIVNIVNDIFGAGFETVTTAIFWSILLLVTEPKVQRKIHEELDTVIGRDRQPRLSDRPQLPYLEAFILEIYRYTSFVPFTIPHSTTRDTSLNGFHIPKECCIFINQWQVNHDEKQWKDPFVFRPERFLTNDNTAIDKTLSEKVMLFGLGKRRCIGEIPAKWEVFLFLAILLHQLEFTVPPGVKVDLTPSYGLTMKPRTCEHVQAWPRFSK
Quantity Name: pKi
Scale for pKi: -log10 of concentration given in mol/L; no unit attached.

Looking up CC1=C(O)C(=O)C=C2C1=CC=C1[C@@]2(C)CC[C@@]2(C)[C@@H]3C[C@](C)(C(=O)O)CC[C@]3(C)CC[C@]12C [CELASTROL] , I found its pKi recorded as 4.41

* * *

test: Antiproliferative activity against human Renal cancer tumor cell line assessed as cell growth inhibition; format: functional, cell-based
Quantity Name: IC50 (µM)
The answer is to be given in µM; state only the numeric part.

Lookup result for `CC1=C(O)C(=O)C=C2C1=CC=C1[C@@]2(C)CC[C@@]2(C)[C@@H]3C[C@](C)(C(=O)O)CC[C@]3(C)CC[C@]12C` ; measured IC50: 4.4

* * *

experiment: Antiproliferative activity against dog CL-1 cells assessed as cell growth inhibition; type: functional, cell-based; conditions: Canis lupus familiaris
Quantity Name: IC50 (nM)
Give a bare numeral; the unit nM is implied.

// sample CC1=C(O)C(=O)C=C2C1=CC=C1[C@@]2(C)CC[C@@]2(C)[C@@H]3C[C@](C)(C(=O)O)CC[C@]3(C)CC[C@]12C [CELASTROL] , its IC50 was 1540

* * *

tested on: Kasumi 1; test: Antiproliferative activity against human Kasumi 1 cells assessed as cell growth inhibition; format: functional, cell-based
Quantity Name: IC50 (nM)
Field: numeric (nM). Do not append units.

Recorded result, `CC1=C(O)C(=O)C=C2C1=CC=C1[C@@]2(C)CC[C@@]2(C)[C@@H]3C[C@](C)(C(=O)O)CC[C@]3(C)CC[C@]12C` , IC50: 2200

* * *

test system: RPMI-8226; assay: Antiproliferative activity against human RPMI-8226 cells assessed as cell growth inhibition; type: functional, cell-based
Quantity Name: pIC50
The quantity pIC50 is defined as the negative base-10 logarithm of the molar concentration.

Entry `CC1=C(O)C(=O)C=C2C1=CC=C1[C@@]2(C)CC[C@@]2(C)[C@@H]3C[C@](C)(C(=O)O)CC[C@]3(C)CC[C@]12C` , pIC50 reported as 6.28

* * *

tested on: KBM5; experiment: Antiproliferative activity against human KBM5 cells expressing Bcr-Abl harboring T315I mutant assessed as cell growth inhibition; format: functional, cell-based
Quantity Name: IC50 (nM)
Hi! Could you send only the number? It should be in nM, unit omitted.

Memo: `CC1=C(O)C(=O)C=C2C1=CC=C1[C@@]2(C)CC[C@@]2(C)[C@@H]3C[C@](C)(C(=O)O)CC[C@]3(C)CC[C@]12C` , reported IC50: 520
